Reference for the values: patent US20160053277A1

# protocol summary: 14C assay with IPTG-induced recombinant E. coli cells: 14CO2 captured from [14C]-carboxyl-labeled dicamba
# measurement parameters: induced recombinant E. coli cells, [14C]-carboxyl-labeled dicamba, 14CO2 capture
readout type: Dicamba Decarboxylase Activity

The examples below pair each entry with its known result.
* 21 (protein, listed as Agrobacterium tumefaciens) MAQGKVALEEHFAIPETLQDSAGFVPGDYWKELQHRLLDIQDTRLKLMDAHGIETMILSLNAPAVQAIPDRKKAIEIARRANDVLAEECARRPDRFLAFAALPLQDPDAATQELQRCVNDLGFVGALVNGFSQEGDGQTPLYYDLPQYRPFWGEVEKLDVPFYLHPRNPLPQDSRIYDGHPWLLGPTWAFAQETAVHALRLMASGLFDAHPRLNIILGHMGEGLPYMMWRIDHRNAWVKLPPRYPAKRRFVDYFNENFHITTSGNFRTQTLIDAILEIGADRILFSTDWPFENIDHASDWFNATTIAEADRVKIGRTNARRLFKLDGR | High
* 92 (protein, listed as Chitinophaga pinensis) MARIVTLEEHVSFPEMTALLPEEILKNRKQSGAALQMQEKLADITGERLTSMKAAGISMQVLSVENTDVYLLPDSLAPAFAAKYNDLLADKISSHSDAFAAFAMLPMTVPEAAADELERAVKTHGFCGAMIKGLINGVFLDAPKFAPVFACAEKLGVPLYIHPGIPPKEVIDAYYSNVGDTKGPNEAIACYGWGWHSETAIHILRLLAAGIFDKYPQLNIIIGHMGEMLPMMWERSNRVFQPGNNGKNQRTLIETFRKQLYITTSGIFTQPPLQIAIDTIGIDNILFSIDYPFSSNQMGIDFLTKAALPAEQLAKMAHGNADRILKF | Yes
* 108 (protein, listed as Staphylococcus aureus) MAKSITFEEHYVIEDIQKETMNAISADPKGVPMKVMLEGLEKKTGFTNADELSHHDERIQFMNNQDVQIQVLSYGNGSPSNLVGQKAIELCQKANDQLANYIAQYPNRFVGFATLPINEPEAAAREFERCINDLGFKGALIMGRAQDGFLDQDKYDIIFKTAENLDVPIYLHPAPVNSDIYQSYYKGNYPEVTAATFACFGYGWHIDVGIHAIHLVLSGIFDRYPKLNMIIGHWGEFIPFFLERMDEALFAEHLNHSVSYYFKNSFYITPSGMLTKPQFDLVKKEVGIDRILYAADYPYIEPEKLGVFLDELGLTDEEKEKISYTNGAKLLGLSSNN | High
* 44 (protein, listed as Mycobacterium avium) MARIITVEEHFQHPEVSARVAELTGPAVEGLAEFGNAFSLDPDSTARLGGNRLAHMDQVGIDVQVVSHGNGSPGTLQHPEAVELCRRVNNDLAAQIAENPDRFRGFATLPLYDPAAAAEELRRCVGDLGFVGALIAGSYDGLFLDDERFDPILTAAEAVDFPIYVHPGLPEAPVSQRYYAGSWPASVHMMFSGPAFGWHAEAGIHIVRLILSGALDRHPTLKLLSGHWGELAAFYLERLDETLGLLPTGLERAPSDYYRQQVWITPSGMYNQNQLNFMTAELGAQRIIYSEDFPYVVRDNVSTFLEQAGLSEADTHAIAHTNAEALLRI | High

Q: Fill in: Dicamba Decarboxylase Activity of 98 (protein, Xanthomonas campestris pv.) MAIIDCHGHYTTAPAAHDAFRKAQIAHHDDPQQPAPQYPHISDDALRESIEQHQLRLLRERGADMTIFSPRASTMAHHIGNEAVSQVWTQRCNDLIARVVQLYPHTFIGVCQLPQSPGVPISHSIAELERCVNELGFVGCNLNPDPSGGHWNGVPLTDRAWYPFFEKMVELDVPAMVHVSGSCNANFHATGAHYLNADTTAFMQFLEGDLFRDFPSLRFIIPHGGGAVPYHWGRFRGLADMLGKPPLATHVMRNVFFDTCVYHQPGIDLLFEVIDIDNILFGSEMVGAVRGIDPQTGHYFDDTKRYIDALTISDADKRKVFEGNARRVYPRLDAQLRARGL is ___
A: No

Q: Same question, 37 (protein, listed as Burkholderia gladioli) MATFSNVKKIALEEHFAIAETIEDSAGFVPPDDWVELRGRLLDIQERRLAEMDRAGIELMVLSLNAPAVQAIRDPRQAVELARRANDYLAEQVARRPDRFRAFAALPMQAPEQAIREAERCVRELGFVGALVNGFSEAEDGAELYYDLPRYRPFWAALEALEVPFYLHPRNPLAGRAPIYDGHSWLMGPTWAFGQETAVHALRLMGSGLFDAHPRLQIILGHMGEGLPYSMWRVDNRNAWVSAKPNYPAEKPIAEYFRNNFWLTTSGNFRTQTLIDAMLEIGSDRILFSADWPFENMDHAADWFDHASISENDRIKIGRGNAERLLKLGR this time
A: Low

Q: Same question, 12 (protein, listed as Zymoseptoria tritici) MALGKVAFEEAFALPRFKERTTWWAGLFAVDPEKHTREINDINKLRIEKMDQFGVGYTLLSYTAPGVQDVWQQEEADALAREVNDHVAAEIKGHEDRLGALATLSMHDPQTASAELRRCIKDYGFKGALVNDTQRNDESGTGMIFYDGPEWDVFWSTVQELDVPFYLHPRNPTGVFMEKLWAPRKWLVGPPLSFAQGVSLHLLGMVTNGTFDRFPNLQVIIGHLGEHLPFDLWRINHWFEDIKKPLGLDCKKTIREYFNENIWITTSGHFSTPTLEYCIKEIGAERILFSIDYPFEKFEDACDWYDGVELDGPDTVKKIGRENAKKLFKLGAFKDDSA this time
A: No

Q: Same question, 47 (protein, listed as Serratia odorifera) MAKIICLEEHTLDKALVMASMPAALAQAPFLSDWGKTITDGNLPDRSRPQIEKNDLINVKGADIGRGRLDDMDEAGITMQVLSVGGFPHLISAAEGVDLNRAANDRLANAVNAHPDRFAAFATLPWAQPDAAEKELERAVKELGFKGALLNGRPSIHFLDHPDYDGLLARFNALGVPLYLHPGLPVRSVQQAYYSGFSDEVTARLSMFGWGWHHEAGIHLLRLILSGAFDKYPNLQVISGHWGEMLPFWLQRLDDSLPQAATGLRRTITQTFREQVYVTPSGMLTLPHFQFIYALLGAERILFSVDYPYQTLDGVKAFIQSLPVPEEAKEAIAFRNAERLFGLTS this time
A: High
